These measurements were taken from paper PMC11480844.

B1: H2-Kb / Ed33 (parent complex)
chain 1: SQLAEENSWALSVHEGESVTVNCSYKTSITALQWYRQKSGKGPAQLILIRSNEREKRNGRLRATLDTSSQSSSLSITATRCEDTAVYFCATDHNNAGAKLTFGGGTRLTVRP
chain 2: DAGVTQTPRHEVAEKGQTIILKCEPVSGHNDLFWYRQTKIQGLELLSYFRSKSLMEDGGAFKDRFKAEMLNSSFSTLKIQPTEPKDSAVYLCASSLYTNQAPLFGEGTRLSVL
chain 3: not shown
chain 4: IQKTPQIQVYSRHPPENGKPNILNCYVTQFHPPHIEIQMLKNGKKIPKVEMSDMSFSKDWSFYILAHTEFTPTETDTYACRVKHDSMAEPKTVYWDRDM
chain 5: SIINFEKL

Variants of: B1
Assay: % of reporter cells activated (NFAT-GFP), raw; further: test concentration or dose not given here
measure name: ratio to parent

Known results for variants:
chain 5 I3H : 0.895
chain 5 E6M : 0.0967
chain 5 F5S : 0.958

P: chain 5 E6F
Q: chain 5 E6L
R: chain 5 S1A
S: chain 5 F5M
**Query** Your job: order these 4 records by ratio to parent, ascending. Give the labels in the order requested.
**Result** Q, P, R, S
